# tested-system: SIRT2 (Homo sapiens)
# Sequence (Q8IXJ6 1-389): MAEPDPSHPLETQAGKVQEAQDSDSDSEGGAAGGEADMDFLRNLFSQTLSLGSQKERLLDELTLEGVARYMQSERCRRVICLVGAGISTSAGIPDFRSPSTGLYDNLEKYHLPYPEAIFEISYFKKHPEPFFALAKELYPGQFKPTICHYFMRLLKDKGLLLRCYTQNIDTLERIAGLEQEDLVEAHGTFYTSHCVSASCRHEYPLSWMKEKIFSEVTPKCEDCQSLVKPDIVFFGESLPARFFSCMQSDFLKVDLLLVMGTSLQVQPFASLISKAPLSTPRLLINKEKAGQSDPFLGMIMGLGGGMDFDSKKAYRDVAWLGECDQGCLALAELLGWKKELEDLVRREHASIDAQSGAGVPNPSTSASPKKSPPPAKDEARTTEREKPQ
# assay-text: SIRT2 deacetylation of Trp 5-mer peptide, OAADPr mass spec assay
# Format: biochemical
# Set-up: His-SIRT2(1-389)
# experimental-conditions: IC50 (μM) SIRT2, Trp 5-mer peptide and NAD at KM; mean of at least three determinations
test-readout: IC50 (µM)
Give a bare numeral; the unit µM is implied.

INPUT: State the recorded IC50 for this entry: CC(C)(C)OC(=O)c1ccc(C(=O)NCCC2CCN(c3ncnc4cc(C(N)=O)sc34)CC2)s1
OUTPUT: 0.001

Every entry's value here was drawn from patent US20160002273A1.
